# study.target: T1, human gpNMB (Human Osteoactivin, His-tag, AcroBioSystems) (human, UniProt Q14956-2 23-486, limits assumed)
# T1 sequence (looked up): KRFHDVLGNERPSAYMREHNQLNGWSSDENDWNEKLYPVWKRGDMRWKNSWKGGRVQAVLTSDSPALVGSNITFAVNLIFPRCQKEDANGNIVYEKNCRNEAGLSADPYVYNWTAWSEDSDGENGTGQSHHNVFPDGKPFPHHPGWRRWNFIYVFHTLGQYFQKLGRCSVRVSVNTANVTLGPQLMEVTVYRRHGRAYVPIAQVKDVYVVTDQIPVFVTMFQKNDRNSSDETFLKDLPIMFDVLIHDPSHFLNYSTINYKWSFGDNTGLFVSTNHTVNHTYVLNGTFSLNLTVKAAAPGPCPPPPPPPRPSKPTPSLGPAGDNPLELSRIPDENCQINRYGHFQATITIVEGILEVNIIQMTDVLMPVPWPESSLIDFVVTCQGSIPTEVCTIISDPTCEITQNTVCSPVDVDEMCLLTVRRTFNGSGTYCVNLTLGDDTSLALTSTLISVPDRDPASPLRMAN
# assay.name: SPR Biacore 8K, antibody captured on protein A, gpNMB as analyte
outcome.measure: kon (M⁻¹ s⁻¹)
Answer format: numeric, M⁻¹ s⁻¹ implied, no suffix.

INSERT INTO assay_data (binder, outcome_measure, display_unit, value) VALUES
  ('hGPN18-5_H3L1 (antibody, V domains shown, humanized; also called hGPN18-5 VH3+VL1) VH: QVQLVQSGAEVKKPGASVKVSCKASGYTFTTYWMNWVRQAPGQGLEWIGAINPSNDYTEYNQKFKDRAIMTADKSTSTVYMELSSLRSEDTAVYYCGRSYSPDYWGQGTTVTVSS VL: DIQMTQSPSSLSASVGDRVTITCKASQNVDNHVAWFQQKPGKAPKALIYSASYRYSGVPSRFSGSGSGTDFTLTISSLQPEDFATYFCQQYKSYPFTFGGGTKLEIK', 'kon', 'M⁻¹ s⁻¹', 6810);

In: Returns the measured kon for the input binder. Input: hGPN18-5_H1L1 (antibody, V domains shown, humanized; also called hGPN18-5_VH1+VL1) VH: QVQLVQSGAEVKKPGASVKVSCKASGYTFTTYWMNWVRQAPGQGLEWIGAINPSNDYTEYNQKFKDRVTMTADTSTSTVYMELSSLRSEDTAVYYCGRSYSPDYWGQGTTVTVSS VL: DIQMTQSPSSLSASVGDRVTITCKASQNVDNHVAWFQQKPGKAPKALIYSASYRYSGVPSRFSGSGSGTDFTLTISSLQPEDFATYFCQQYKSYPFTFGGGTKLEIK
Out: 6640

In: Query: kon; subject: hGPN18-5_H2L3 (antibody, V domains shown, humanized; also called hGPN18-5_VH2+VL3; GPN18-5-VH2+VL3) VH: QVQLVQSGAEVKKPGASVKVSCKASGYTFTTYWMNWVRQAPGQGLEWIGAINPSNDYTEYNQKFKDRATMTADTSTSTVYMELSSLRSEDTAVYYCGRSYSPDYWGQGTTVTVSS VL: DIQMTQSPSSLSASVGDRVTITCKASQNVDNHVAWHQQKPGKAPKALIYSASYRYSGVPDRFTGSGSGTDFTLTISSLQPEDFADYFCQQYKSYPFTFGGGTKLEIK
Out: 7780
